target: Metabotropic glutamate receptor 3 (Rattus norvegicus); assay: Negative allosteric modulation of rat mGlu3 receptor assessed as amplitude response at 30 uM relative to glutamate
Measured Parameter: Activity

# Smiles Text, Result
measured = [
    ("C[C@@H]1CN(c2cccc(F)c2F)C(=O)c2cc(COc3ccc(F)cn3)nn21", "2.15%"),
    ("Cc1cccc(OCc2cc3n(n2)[C@H](C)CN(c2ccc(F)cc2)C3=O)n1", "1.12%"),
    ("Cc1ccc(OCc2cc3n(n2)[C@H](C)CN(c2ccc(F)cc2)C3=O)cc1", "1.72%"),
    ("C[C@@H]1CN(c2ccc(F)cc2)C(=O)c2cc(COc3ncccc3C(F)(F)F)nn21", "2.11%"),
    ("C[C@@H]1CN(c2ccccn2)C(=O)c2cc(COc3ccc(F)cn3)nn21", "0.96%"),
    ("C[C@@H]1CN(c2ccccc2C#N)C(=O)c2cc(COc3ccc(Cl)cn3)nn21", "1.64%"),
    ("C[C@@H]1CN(c2cccnc2)C(=O)c2cc(COc3ccc(F)cn3)nn21", "0.64%"),
    ("C[C@@H]1CN(c2ncccc2C#N)C(=O)c2cc(COc3ccc(Cl)cn3)nn21", "1.35%"),
    ("C[C@@H]1CN(c2ccc(F)cc2)C(=O)c2cc(COc3cccc(C(F)(F)F)n3)nn21", "2.06%"),
    ("C[C@@H]1CN(c2cccnc2)C(=O)c2cc(COc3ccc(Cl)cn3)nn21", "1.73%"),
]

* * *

Entries and their measured Vd follow.
assay: Volume of distribution at steady state in rat at 0.2 mg/kg, iv administered as cassette dose; type: ADME, organism-based; details: in vivo, read-out: Vdss

# Smiles Text, Vd
measured = [
    ("C[C@@H]1CN(c2cc(F)cc(C#N)c2)C(=O)c2cc(COc3ccc(Cl)cn3)nn21", "2.2 L/kg"),
    ("C[C@@H]1CN(c2cncc(F)c2)C(=O)c2cc(COc3ccc(Cl)cn3)nn21", "1.9 L/kg"),
    ("C[C@@H]1CN(c2ccc(F)cc2)C(=O)c2cc(COc3ccc(Cl)cn3)nn21", "5.2 L/kg"),
    ("C[C@@H]1CN(c2cccnc2)C(=O)c2cc(COc3ccc(Cl)cn3)nn21", "1.2 L/kg"),
    ("CCOc1ccc(OCc2cc3n(n2)[C@H](C)CN(c2ccc(F)cc2)C3=O)cc1", "2.2 L/kg"),
    ("C[C@@H]1CN(c2ccc(F)cc2)C(=O)c2cc(COc3ccc(F)cn3)nn21", "6.6 L/kg"),
    ("C[C@@H]1CN(c2cncc(C#N)c2)C(=O)c2cc(COc3ccc(Cl)cn3)nn21", "1.4 L/kg"),
    ("C[C@@H]1CN(c2ccc(F)cc2)C(=O)c2cc(COc3ccc(F)cc3)nn21", "3.5 L/kg"),
    ("C[C@@H]1CN(c2cccnc2F)C(=O)c2cc(COc3ccc(Cl)cn3)nn21", "1.6 L/kg"),
]

* * *

molecular target: Metabotropic glutamate receptor 5 (Rattus norvegicus); test: Modulation of rat mGlu5 receptor assessed as assessed as calcium mobilization at 30 uM by cell based fluorescence assay; type: functional
Measured Parameter: Activity

# Smiles Text, Result
records = [
    ("C[C@@H]1CN(c2ccc(F)cc2)C(=O)c2cc(COc3ccc(F)cc3)nn21", "87%"),
    ("CCc1ccc(OCc2cc3n(n2)[C@H](C)CN(c2ccc(F)cc2)C3=O)cc1", "50.8%"),
    ("COc1ccc(N2C[C@@H](C)n3nc(COc4ccc(Cl)cn4)cc3C2=O)cc1", "59.4%"),
    ("C[C@@H]1CN(c2ccc(F)cn2)C(=O)c2cc(COc3ccc(Cl)cn3)nn21", "47.9%"),
    ("Cc1ccccc1N1C[C@@H](C)n2nc(COc3ccc(F)cn3)cc2C1=O", "35.8%"),
]

* * *

molecular target: Cytochrome P450 2C9 (Homo sapiens, UniProt P11712)
Sequence (P11712 whole entry): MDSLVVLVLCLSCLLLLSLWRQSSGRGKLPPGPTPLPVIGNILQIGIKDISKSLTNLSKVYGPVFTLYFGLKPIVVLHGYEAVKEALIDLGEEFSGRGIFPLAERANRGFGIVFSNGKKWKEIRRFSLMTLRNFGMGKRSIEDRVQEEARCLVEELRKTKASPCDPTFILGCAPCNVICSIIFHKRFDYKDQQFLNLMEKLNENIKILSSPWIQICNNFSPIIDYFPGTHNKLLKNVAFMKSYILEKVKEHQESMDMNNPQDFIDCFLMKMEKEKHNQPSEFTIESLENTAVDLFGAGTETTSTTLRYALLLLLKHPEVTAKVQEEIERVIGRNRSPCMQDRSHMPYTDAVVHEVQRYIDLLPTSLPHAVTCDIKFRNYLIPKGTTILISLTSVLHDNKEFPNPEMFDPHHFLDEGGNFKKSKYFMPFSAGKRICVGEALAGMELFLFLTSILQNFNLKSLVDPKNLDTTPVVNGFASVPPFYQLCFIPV

# Smiles Text, IC50 [µM]
measured = [
    ("C[C@@H]1CN(c2cccnc2F)C(=O)c2cc(COc3ccc(Cl)cn3)nn21", 25.6),
]

* * *

target: Metabotropic glutamate receptor 3 (Rattus norvegicus, UniProt P31422); assay: Negative allosteric modulation of rat mGlu3 receptor assessed as calcium mobilization by cell based fluorescence assay
Sequence (P31422 whole entry): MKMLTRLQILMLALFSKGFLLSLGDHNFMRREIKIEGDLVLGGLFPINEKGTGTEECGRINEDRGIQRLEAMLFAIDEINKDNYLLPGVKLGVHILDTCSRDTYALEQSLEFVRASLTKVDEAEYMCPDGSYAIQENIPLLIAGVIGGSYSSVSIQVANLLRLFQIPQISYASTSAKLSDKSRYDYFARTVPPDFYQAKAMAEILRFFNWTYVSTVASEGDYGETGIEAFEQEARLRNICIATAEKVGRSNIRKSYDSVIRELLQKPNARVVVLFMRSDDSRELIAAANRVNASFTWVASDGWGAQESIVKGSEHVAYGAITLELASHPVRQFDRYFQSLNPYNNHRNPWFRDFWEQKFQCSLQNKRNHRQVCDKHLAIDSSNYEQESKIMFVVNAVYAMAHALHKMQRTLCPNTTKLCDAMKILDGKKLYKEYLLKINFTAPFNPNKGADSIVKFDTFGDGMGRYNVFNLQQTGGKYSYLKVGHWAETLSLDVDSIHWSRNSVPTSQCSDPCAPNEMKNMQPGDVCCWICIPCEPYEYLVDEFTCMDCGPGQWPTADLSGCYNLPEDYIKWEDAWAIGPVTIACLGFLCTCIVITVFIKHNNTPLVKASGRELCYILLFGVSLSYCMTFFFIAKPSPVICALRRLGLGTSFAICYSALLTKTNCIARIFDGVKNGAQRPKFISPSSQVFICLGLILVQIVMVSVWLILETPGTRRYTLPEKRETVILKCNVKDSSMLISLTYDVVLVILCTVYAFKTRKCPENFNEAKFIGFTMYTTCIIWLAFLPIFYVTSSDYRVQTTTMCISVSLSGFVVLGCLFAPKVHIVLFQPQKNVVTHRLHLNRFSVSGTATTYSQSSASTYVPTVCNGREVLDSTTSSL
Measured Parameter: IC50 (nM)

# Smiles Text, Numeric Readout
rows = [
    ("Cc1ccnc(OCc2cc3n(n2)[C@H](C)CN(c2ccc(F)cc2)C3=O)c1", 2090),
    ("Cc1ccc(N2C[C@@H](C)n3nc(COc4ccc(F)cn4)cc3C2=O)cc1", 269),
    ("C[C@@H]1CN(c2ccc(F)cc2)C(=O)c2cc(COc3ncccc3F)nn21", 1100),
    ("COc1ccc(OCc2cc3n(n2)[C@H](C)CN(c2ccc(F)cc2)C3=O)cc1", 1040),
    ("C[C@@H]1CN(c2cccnc2)C(=O)c2cc(COc3ccc(Cl)cn3)nn21", 608),
]

* * *

target: Metabotropic glutamate receptor 3 (Rattus norvegicus) (UniProt P31422); assay: Negative allosteric modulation of rat mGlu3 receptor assessed as amplitude response at 30 uM relative to glutamate
Activity less than 2% is YES; Activity greater than or equal to 2% is NO.

# Smiles Text, Assigned Class
records = [
    ("C[C@@H]1CN(c2cc(F)cc(F)c2)C(=O)c2cc(COc3ccc(Cl)cn3)nn21", "NO"),
    ("C[C@@H]1CN(c2ccc(F)cc2)C(=O)c2cc(COc3ccc(Cl)cc3)nn21", "YES"),
    ("COc1ccc(OCc2cc3n(n2)[C@H](C)CN(c2ccc(F)cc2)C3=O)cc1", "YES"),
    ("COc1ccc(N2C[C@@H](C)n3nc(COc4ccc(F)cn4)cc3C2=O)cc1", "YES"),
    ("Cc1cccc(N2C[C@@H](C)n3nc(COc4ccc(F)cn4)cc3C2=O)c1", "YES"),
    ("C[C@@H]1CN(c2ncccc2F)C(=O)c2cc(COc3ccc(Cl)cn3)nn21", "YES"),
    ("COc1cccc(N2C[C@@H](C)n3nc(COc4ccc(F)cn4)cc3C2=O)c1", "YES"),
    ("C[C@@H]1CN(c2ccc(F)cc2)C(=O)c2cc(COc3ccccc3)nn21", "NO"),
    ("C[C@@H]1CN(c2ccccc2F)C(=O)c2cc(COc3ccc(F)cn3)nn21", "YES"),
]

* * *

experiment: in vivo; conditions: rat, ip, 10 mg/kg
Description: Tmax in rat at 10 mg/kg, ip

# Smiles Text, Tmax
measured = [
    ("C[C@@H]1CN(c2cccnc2F)C(=O)c2cc(COc3ccc(Cl)cn3)nn21", "12.3 min"),
]

* * *

system: Plasma; assay: Fraction unbound in rat plasma; assay type: ADME, cell-free
Listed next: entries and their corresponding Fu.

# Smiles Text, Fu
measured = [
    ("C[C@@H]1CN(c2cc(F)ccc2F)C(=O)c2cc(COc3ccc(F)cn3)nn21", 0.089),
    ("C[C@@H]1CN(c2cccc(F)c2F)C(=O)c2cc(COc3ccc(F)cn3)nn21", 0.092),
    ("C[C@@H]1CN(c2cc(F)cc(C#N)c2)C(=O)c2cc(COc3ccc(Cl)cn3)nn21", 0.045),
    ("C[C@@H]1CN(c2cccc(F)c2)C(=O)c2cc(COc3ccc(F)cn3)nn21", 0.094),
    ("C[C@@H]1CN(c2ccccn2)C(=O)c2cc(COc3ccc(Cl)cn3)nn21", 0.051),
    ("C[C@@H]1CN(c2cncc(F)c2)C(=O)c2cc(COc3ccc(Cl)cn3)nn21", 0.092),
    ("C[C@@H]1CN(c2ccccc2Cl)C(=O)c2cc(COc3ccc(F)cn3)nn21", 0.054),
    ("CCOc1ccc(OCc2cc3n(n2)[C@H](C)CN(c2ccc(F)cc2)C3=O)cc1", 0.005),
    ("C[C@@H]1CN(c2ccc(F)cc2)C(=O)c2cc(COc3ccc(F)cc3)nn21", 0.06),
    ("C[C@@H]1CN(c2cccnc2)C(=O)c2cc(COc3ccc(Cl)cn3)nn21", 0.118),
    ("C[C@@H]1CN(c2ccc(F)cc2)C(=O)c2cc(COc3ccc(Cl)cn3)nn21", 0.034),
    ("C[C@@H]1CN(c2ccccc2F)C(=O)c2cc(COc3ccc(F)cn3)nn21", 0.098),
    ("C[C@@H]1CN(c2cncc(C#N)c2)C(=O)c2cc(COc3ccc(Cl)cn3)nn21", 0.078),
    ("C[C@@H]1CN(c2cccnc2F)C(=O)c2cc(COc3ccc(Cl)cn3)nn21", 0.083),
    ("C[C@@H]1CN(c2cnccc2F)C(=O)c2cc(COc3ccc(Cl)cn3)nn21", 0.085),
    ("C[C@@H]1CN(c2ccc(F)cc2)C(=O)c2cc(COc3ccc(F)cn3)nn21", 0.135),
    ("Cc1cccc(N2C[C@@H](C)n3nc(COc4ccc(F)cn4)cc3C2=O)c1", 0.051),
    ("C[C@@H]1CN(c2cccc(Cl)c2)C(=O)c2cc(COc3ccc(F)cn3)nn21", 0.034),
    ("C[C@@H]1CN(c2c(F)cccc2F)C(=O)c2cc(COc3ccc(F)cn3)nn21", 0.064),
]
